test: Plasma and inner ear fluid exposure after single trans-tympanic injection in thermoreversible hydrogel composition (Example 4); format: in vivo, male Wistar rats; conditions: male, Wistar, plasma, other: trans-tympanic injection, 150 μg in one ear; rat, trans-tympanic 150 μg one ear, suspension in thermoreversible hydrogel, T0 + 1 hour; read-out: Concentration of xaliproden (hydrochloride salt), Plasma, Mean
Where a name gives a salt, the structure may show the parent alone.
Readout: concentration at 1 h (ng/mL)
Answers are plain numbers, in ng/mL.

Given the entry FC(F)(F)c1cccc(C2=CCN(CCc3ccc4ccccc4c3)CC2)c1 [xaliproden (hydrochloride salt)] , report its measured concentration at 1 h.
4.9

* * *

assay: Plasma and inner ear fluid exposure after single oral gavage (Example 1); type: in vivo, male Wistar rats; settings: male, Wistar, plasma; rat, single oral 20 mg/kg, T0 + 24 hours; read-out: Concentration of xaliproden (hydrochloride salt), Plasma, Mean
Where a name gives a salt, the structure may show the parent alone.
Readout: concentration at 24 h (ng/mL)
One number for each entry, in ng/mL.

Given the entry FC(F)(F)c1cccc(C2=CCN(CCc3ccc4ccccc4c3)CC2)c1 [xaliproden (hydrochloride salt)] , report its measured concentration at 24 h.
44.1

* * *

assay: Plasma and inner ear fluid exposure after single trans-tympanic injection in lipid-based mucoadhesive solution (Example 3); type: in vivo, male Wistar rats; conditions: male, Wistar, plasma, other: trans-tympanic injection, rat, trans-tympanic 181.2 μg one ear, T0 + 168 hours, read-out: Concentration of xaliproden (hydrochloride salt), Plasma, Mean
Where a name gives a salt, the structure may show the parent alone.
Readout: concentration at 168 h (ng/mL)
One number for each entry, in ng/mL.

Given the entry FC(F)(F)c1cccc(C2=CCN(CCc3ccc4ccccc4c3)CC2)c1 [xaliproden (hydrochloride salt)] , report its measured concentration at 168 h.
0.5

* * *

Field: concentration at 7 days. Provide a value for each of the compounds that follow.
assay: Plasma and inner ear fluid exposure after single trans-tympanic injection in thermoreversible hydrogel composition (Example 4); assay type: in vivo, male Wistar rats; conditions: male, Wistar, inner ear fluid, other: trans-tympanic injection; rat, trans-tympanic injection, thermoreversible hydrogel, 7 days; read-out: Concentrations in the inner ear fluid at 7 days post injection
Counter-ions that a name gives are not always drawn.

>>> test_value("FC(F)(F)c1cccc(C2=CCN(CCc3ccc4ccccc4c3)CC2)c1 [xaliproden (hydrochloride salt)]")
"~100 ng/mL"

Now look at this one.
Given the entry FC(F)(F)c1cccc(C2=CCN(CCc3ccc(-c4ccccc4)cc3)CC2)c1 [paliroden (fumarate salt)] , report its measured concentration at 7 days.
~600 ng/mL

* * *

experiment: Plasma and inner ear fluid exposure after single oral gavage (Example 1); assay type: in vivo, male Wistar rats; settings: male, Wistar, plasma; rat, single oral 20 mg/kg, T0 + 1 hour; read-out: Concentration of xaliproden (hydrochloride salt), Plasma, Mean
Where a name gives a salt, the structure may show the parent alone.
Readout: concentration at 1 h (ng/mL)
Numbers only, in ng/mL.

Given the entry FC(F)(F)c1cccc(C2=CCN(CCc3ccc4ccccc4c3)CC2)c1 [xaliproden (hydrochloride salt)] , report its measured concentration at 1 h.
44.1

* * *

experiment: Plasma and inner ear fluid exposure after single trans-tympanic injection in lipid-based mucoadhesive solution (Example 3); type: in vivo, male Wistar rats; conditions: male, Wistar, other: trans-tympanic injection, rat inner ear fluid, trans-tympanic 243 μg, T0 + 24 hours, read-out: Concentration of paliroden (fumarate salt), IEF, Mean
Structures can show the parent of a compound that is named as a salt.
Readout: concentration at 24 h (ng/mL)
Numbers only, in ng/mL.

Given the entry FC(F)(F)c1cccc(C2=CCN(CCc3ccc(-c4ccccc4)cc3)CC2)c1 [paliroden (fumarate salt)] , report its measured concentration at 24 h.
3.2

* * *

experiment: Plasma and inner ear fluid exposure after single oral gavage (Example 1); format: in vivo, male Wistar rats; conditions: male, Wistar, plasma; rat, single oral 30 mg/kg, T0 + 1 hour; read-out: Concentration of paliroden (fumarate salt), Plasma, Mean
Structures can show the parent of a compound that is named as a salt.
Readout: concentration at 1 h (ng/mL)
Answers are plain numbers, in ng/mL.

Given the entry FC(F)(F)c1cccc(C2=CCN(CCc3ccc(-c4ccccc4)cc3)CC2)c1 [paliroden (fumarate salt)] , report its measured concentration at 1 h.
35

* * *

experiment: Plasma and inner ear fluid exposure after single oral gavage (Example 1); format: in vivo, male Wistar rats; details: male, Wistar, plasma; rat, single oral 20 mg/kg, T0 + 2 hours; read-out: Concentration of xaliproden (hydrochloride salt), Plasma, Mean
Where a name gives a salt, the structure may show the parent alone.
Readout: concentration at 2 h (ng/mL)
Numbers only, in ng/mL.

Given the entry FC(F)(F)c1cccc(C2=CCN(CCc3ccc4ccccc4c3)CC2)c1 [xaliproden (hydrochloride salt)] , report its measured concentration at 2 h.
58

* * *

test: Plasma and inner ear fluid exposure after single trans-tympanic injection in thermoreversible hydrogel composition (Example 4); assay type: in vivo, male Wistar rats; conditions: male, Wistar, other: trans-tympanic injection; rat inner ear fluid, trans-tympanic 300 μg, thermoreversible hydrogel, T0 + 1 hour; read-out: Concentration of paliroden (fumarate salt), IEF, Mean
Structures can show the parent of a compound that is named as a salt.
Readout: concentration at 1 h (ng/mL)
Numbers only, in ng/mL.

Given the entry FC(F)(F)c1cccc(C2=CCN(CCc3ccc(-c4ccccc4)cc3)CC2)c1 [paliroden (fumarate salt)] , report its measured concentration at 1 h.
5490

* * *

assay: Plasma and inner ear fluid exposure after single trans-tympanic injection in thermoreversible hydrogel composition (Example 4); format: in vivo, male Wistar rats; conditions: male, Wistar, inner ear fluid, other: trans-tympanic injection, 300 μg; rat, trans-tympanic injection, thermoreversible hydrogel, 7 days, approximate conversion; read-out: Concentrations in the inner ear fluid at 7 days post injection
Where a name gives a salt, the structure may show the parent alone.
Readout: concentration at 7 days

Given the entry FC(F)(F)c1cccc(C2=CCN(CCc3ccc(-c4ccccc4)cc3)CC2)c1 [paliroden (fumarate salt)] , report its measured concentration at 7 days.
~1200 nM

* * *

assay: Plasma and inner ear fluid exposure after single oral gavage (Example 1); format: in vivo, male Wistar rats; settings: male, Wistar; rat inner ear fluid, single oral 20 mg/kg, T0 + 2 hours; read-out: Concentration of xaliproden (hydrochloride salt), IEF, Mean
Where a name gives a salt, the structure may show the parent alone.
Readout: concentration at 2 h (ng/mL)
Answers are plain numbers, in ng/mL.

Given the entry FC(F)(F)c1cccc(C2=CCN(CCc3ccc4ccccc4c3)CC2)c1 [xaliproden (hydrochloride salt)] , report its measured concentration at 2 h.
19.4

* * *

Experiment: Plasma and inner ear fluid exposure after single trans-tympanic injection in lipid-based mucoadhesive solution (Example 3)
Assay type: in vivo, male Wistar rats
Conditions: male, Wistar, plasma, other: trans-tympanic injection, rat, trans-tympanic 243 μg one ear, T0 + 24 hours, read-out: Concentration of paliroden (fumarate salt), Plasma, Mean
Protocol: Composition 7P and composition 7X as described in example 2 were administered to male Wistar rats (5 animals per active agent and timepoint), as described below. […] For the 15 rats that have received composition 7P and for the 15 rats that have received composition 7X, plasmatic and inner ear expositions were determined via blood and cochlea terminal sampling in order to achieve lithium-heparin plasma and inner ear fluid preparation, at T+1 hour, T+24 hours and T+168 hours. […]
Counter-ions that a name gives are not always drawn.
Readout: concentration at 24 h
The answer should read as a number with its unit following.

Given the entry FC(F)(F)c1cccc(C2=CCN(CCc3ccc(-c4ccccc4)cc3)CC2)c1 [paliroden (fumarate salt)] , report its measured concentration at 24 h.
1.7 ng/mL

* * *

Field: solubility. Provide a value for each of the molecules that follow.
experiment: Solubility of paliroden and xaliproden in trans-tympanic compositions and in water (Example 2); assay type: physicochemical
Where a name gives a salt, the structure may show the parent alone.

>>> test_value("FC(F)(F)c1cccc(C2=CCN(CCc3ccc(-c4ccccc4)cc3)CC2)c1 [paliroden (fumarate salt)]")
"< 0.1 mg/mL"

Given the entry FC(F)(F)c1cccc(C2=CCN(CCc3ccc4ccccc4c3)CC2)c1 [xaliproden (hydrochloride salt)] , report its measured solubility.
< 0.1 mg/mL

* * *

test: Plasma and inner ear fluid exposure after single trans-tympanic injection in lipid-based mucoadhesive solution (Example 3); format: in vivo, male Wistar rats; conditions: male, Wistar, plasma, other: trans-tympanic injection, rat, trans-tympanic 181.2 μg one ear, T0 + 1 hour, read-out: Concentration of xaliproden (hydrochloride salt), Plasma, Mean
Structures can show the parent of a compound that is named as a salt.
Readout: concentration at 1 h (ng/mL)
Answers are plain numbers, in ng/mL.

Given the entry FC(F)(F)c1cccc(C2=CCN(CCc3ccc4ccccc4c3)CC2)c1 [xaliproden (hydrochloride salt)] , report its measured concentration at 1 h.
4.4

* * *

assay: Plasma and inner ear fluid exposure after single trans-tympanic injection in lipid-based mucoadhesive solution (Example 3); format: in vivo, male Wistar rats; details: male, Wistar, other: trans-tympanic injection, rat inner ear fluid, trans-tympanic 181.2 μg, T0 + 24 hours, read-out: Concentration of xaliproden (hydrochloride salt), IEF, Mean
Counter-ions that a name gives are not always drawn.
Readout: concentration at 24 h (ng/mL)
Answers are plain numbers, in ng/mL.

Given the entry FC(F)(F)c1cccc(C2=CCN(CCc3ccc4ccccc4c3)CC2)c1 [xaliproden (hydrochloride salt)] , report its measured concentration at 24 h.
74.3
